- ASSAY_INFO: protein stability index of a GFP-peptide fusion (yeast GPS) (PSI 1-4); higher = more stable; sorted into four equal gates, so the index is relative within each strain
- COND: ubr1∆
MEASURE_NAME: protein stability index

>>> readout_number("FSEEKAEEFDFNVPVVS [YAR002W/NUP60]")
1.15
>>> readout_number("KSICFENCLNNDPEILK [SWI1]")
2.7
>>> readout_number("FICSIIQTVVISLLALP [YML031W/NDC1]")
2.12
>>> readout_number("FGSKPTGATSLFGSSNN [YGL172W/NUP49]")
3.64
>>> readout_number("IRGILMASGSTTFTKVA [PRP8]")
2.15
>>> readout_number("ERGFACIPLVGISVPFH [FAS1]")
1.21
>>> readout_number("LDIPNVSLVVNFQISKK [PRP28]")
2.71
>>> readout_number("FTNVLTKYSDVLGFLQL [YJL039C/NUP192]")
2.01
>>> readout_number("VNGRTKSNTIPVTSIPS [GAL11]")
2.95
>>> readout_number("MVRLKSRYILFEIIFPP [POP5]")
1.5
>>> readout_number("GGDVVKFQKLLQNSERD [SMC4]")
2.96
>>> readout_number("KLKYHDFLRKATAFNKT [RPL16A]")
1.22
>>> readout_number("NTVDGDLLKLVHLSNGY [FAS1]")
2.46
>>> readout_number("VNQTGSTKKDTVQLTFL [YCG1]")
2.9
